- Protocol text: Distribution of BI-907828 in orthotopic GBM108 tumor models
- Format: in vivo
- Experimental parameters: athymic nude, mouse, intracranial tumor, po, 2 mg/kg
Readout label: concentration at 6 hr

{"Structure": "Cc1c(C(=O)O)ccc2c3n(nc12)[C@@H]1[C@H](C3)N(CC2CC2)[C@@]2(C(=O)Nc3cc(Cl)ccc32)[C@H]1c1cccc(Cl)c1F", "Readout label": "concentration at 6 hr", "Observed value": "0.11 nM"}

* * *

- Type: in vivo
- Experimental parameters: FVB wild-type, mouse, brain, po, 10 mg/kg
Readout label: Kp

{"Structure": "Cc1c(C(=O)O)ccc2c3n(nc12)[C@@H]1[C@H](C3)N(CC2CC2)[C@@]2(C(=O)Nc3cc(Cl)ccc32)[C@H]1c1cccc(Cl)c1F", "Observed value": 0.008}

* * *

- Tested on: P-gp and BCRP
- Protocol text: CNS distribution after single intravenous dose, triple-knockout
- Format: in vivo, mouse
- Experimental parameters: FVB, mouse, brain, iv, 10 mg/kg

{"Structure": "Cc1c(C(=O)O)ccc2c3n(nc12)[C@@H]1[C@H](C3)N(CC2CC2)[C@@]2(C(=O)Nc3cc(Cl)ccc32)[C@H]1c1cccc(Cl)c1F", "Kp": 0.192}

* * *

- Test system: P-gp
- Protocol text: PK and CNS distribution after single intravenous dose, P-gp-knockout
- Format: in vivo, mouse
- Experimental parameters: FVB, mouse, plasma, iv, 10 mg/kg

{"Structure": "Cc1c(C(=O)O)ccc2c3n(nc12)[C@@H]1[C@H](C3)N(CC2CC2)[C@@]2(C(=O)Nc3cc(Cl)ccc32)[C@H]1c1cccc(Cl)c1F", "Unit of measurement": "h", "half-life": 9.4}

* * *

- Format: in vivo
- Experimental parameters: FVB wild-type, mouse, plasma, po, 10 mg/kg
Readout label: Vd/F (L/kg)

{"Molecule": "Cc1c(C(=O)O)ccc2c3n(nc12)[C@@H]1[C@H](C3)N(CC2CC2)[C@@]2(C(=O)Nc3cc(Cl)ccc32)[C@H]1c1cccc(Cl)c1F [BI-907828]", "Observed value": 0.948}

* * *

- Protocol text: Distribution of BI-907828 in orthotopic GBM108 tumor models
- Assay type: in vivo
- Experimental parameters: athymic nude, mouse, intracranial tumor, po, 2 mg/kg

{"Structure": "Cc1c(C(=O)O)ccc2c3n(nc12)[C@@H]1[C@H](C3)N(CC2CC2)[C@@]2(C(=O)Nc3cc(Cl)ccc32)[C@H]1c1cccc(Cl)c1F", "concentration at 24 hr (nM)": 0.03}

* * *

- Protocol text: Distribution of BI-907828 in orthotopic GBM108 tumor models
- Type: in vivo
- Experimental parameters: athymic nude, mouse, intracranial tumor, po, 10 mg/kg

{"Structure": "Cc1c(C(=O)O)ccc2c3n(nc12)[C@@H]1[C@H](C3)N(CC2CC2)[C@@]2(C(=O)Nc3cc(Cl)ccc32)[C@H]1c1cccc(Cl)c1F", "Unit of measurement": "nM", "concentration at 6 hr": 1}

* * *

- Type: in vivo
- Experimental parameters: FVB, mouse, plasma, po, 10 mg/kg

{"Compound": "Cc1c(C(=O)O)ccc2c3n(nc12)[C@@H]1[C@H](C3)N(CC2CC2)[C@@]2(C(=O)Nc3cc(Cl)ccc32)[C@H]1c1cccc(Cl)c1F [BI-907828]", "AUC(0-inf), µg·h/mL": 162}
